Just for reference, patent US20140271604A1 is where these values come from.

- test description: Storage of samples under ambient conditions, form assigned by XRPD
- Type: physicochemical
- applied conditions: 1-1.5 weeks ambient; cooling-evaporative crystallization, Table 6; label = form after recrystallization
readout label: XRPD Form b: form assigned after storage under ambient conditions

Completed entries (count: 4):
>  <compound>
CC(C)[C@H](C(=O)Nc1ccc(C(=O)NO)cc1)c1ccccc1 [Form K_wet]

>  <result>
Form A

$$$$
>  <compound>
CC(C)[C@H](C(=O)Nc1ccc(C(=O)NO)cc1)c1ccccc1 [Form H1]

>  <result>
Form A

$$$$
>  <compound>
CC(C)[C@H](C(=O)Nc1ccc(C(=O)NO)cc1)c1ccccc1 [Form A]

>  <result>
Form A

$$$$
>  <compound>
CC(C)[C@H](C(=O)Nc1ccc(C(=O)NO)cc1)c1ccccc1 [Form D1_wet]

>  <result>
Form D1_wet**

$$$$

Q: For the compound CC(C)[C@H](C(=O)Nc1ccc(C(=O)NO)cc1)c1ccccc1 [Wet sample] , what XRPD Form b: form assigned after storage under ambient conditions is on record?
A: Form D1_wet**
